# Assay Text: logP determination by HPLC (EEC Directive 79/831 Annex V.A8), LC-MS
# Condition Details: pH 2.7, log P (pH2.7), pH 2.7, value given in the preparation text
Lab note: compare chromatographic logP against 3. Equal or greater, write 1 (yes). Smaller, write 0 (no).

Molecule	Assigned Category
CC(C)(C)OC(=O)N1CCC(c2nc(CSC3CCCCC3)cs2)CC1	1 (yes)
Cc1cc(C(F)(F)F)nn1CC(=O)N1CCC(c2nc(CS(=O)(=O)C3CCCCC3)cs2)CC1	0 (no)
CC(C)(C)OC(=O)N1CCC(c2nc(CSc3cccc4cccnc34)cs2)CC1	1 (yes)
Cc1cc(C(F)(F)F)nn1CC(=O)N1CCC(c2nc(CSc3nnnn3-c3ccccc3)cs2)CC1	1 (yes)
O=C(Cn1nc(C(F)F)cc1C(F)F)N1CCC(c2nc(CSC3=NOC(c4ccccc4)C3)cs2)CC1 (stereo not shown)	1 (yes)
CC(C)(C)OC(=O)N1CCC(c2nc(CSC34CC5CC(CC(C5)C3)C4)cs2)CC1	1 (yes)

Evaluate `Cc1cc(C(F)(F)F)nn1CC(=O)N1CCC(c2nc(CS(=O)(=O)c3nnnn3-c3ccccc3)cs2)CC1` : chromatographic logP at minimum 3?
1 (yes)

Tell me whether chromatographic logP is at least 3 here: `Cc1cc(C(F)(F)F)nn1CC(=O)N1CCC(c2nc(CSC3CCCCC3)cs2)CC1`
1 (yes)

Check the entry Cc1cc(C(F)(F)F)nn1CC(=O)N1CCC(c2nc(C[S+]([O-])c3cccc4ccccc34)cs2)CC1 (stereo not shown) : does chromatographic logP equal or exceed 3?
0 (no)

Decide: chromatographic logP of `Cc1cc(C(F)(F)F)nn1CC(=O)N1CCC(c2nc(CS(=O)(=O)c3cccc4cccnc34)cs2)CC1` >= 3?
0 (no)

Given the entry `Cc1cc(C(F)(F)F)nn1CC(=S)N1CCC(c2nc(CSc3nnnn3-c3ccccc3)cs2)CC1` , answer whether its chromatographic logP meets or surpasses 3.
1 (yes)

Textbook exercise: given the entry `Cc1cc(C(F)(F)F)nn1CC(=O)N1CCC(c2nc(CS(=O)(=O)c3cccc4ccccc34)cs2)CC1` , state whether its chromatographic logP is greater than or equal to 3.
1 (yes)

Origin of measurements: patent US20130090476A1
